The reported numbers originate from BigSolDB 2.1.

- details: in isobutanol, 303.2 K
test-readout: solubility (mole fraction)
The reply should be a number, written without any unit.

[in] Request the reported solubility (mole fraction) associated with c1ccc2c(c1)Cc1ccccc1-2
[out] 0.0121

###

- details: in acetone, 303.1 K
test-readout: solubility (mole fraction)

[in] Need solubility (mole fraction) of c1ccc2c(c1)Cc1ccccc1-2 , thanks.
[out] 0.0793

###

- details: in isobutanol, 283 K
test-readout: solubility (mole fraction)
Please reply with the value in numeric form only.

[in] Value lookup for solubility (mole fraction); key = c1ccc2c(c1)Cc1ccccc1-2
[out] 0.00425

###

- details: in chloroform, 293 K
test-readout: solubility (mole fraction)
Lab note: write the figure by itself, no unit.

[in] What value of solubility (mole fraction) has been recorded for this entry: c1ccc2c(c1)Cc1ccccc1-2
[out] 0.114
